Provenance of the data: patent KR20220081857A

Biological target: T1, 인간 OX40L 단백질 (OX40L-his; ACROBiosystems Cat# OXL-H52Q8) (human, UniProt P23510 51-183)
T1 sequence: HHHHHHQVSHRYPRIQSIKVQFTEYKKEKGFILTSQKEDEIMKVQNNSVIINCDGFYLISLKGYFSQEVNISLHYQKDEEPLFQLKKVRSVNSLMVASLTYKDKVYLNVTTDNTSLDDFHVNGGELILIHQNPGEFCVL
Assay: cell-based or functional assay
Recorded IC50 (nM), OX40L blockade assay by entry
Hi! Could you send only the number? It should be in nM, unit omitted.

Completed entries (count: 3):
reference 항-OX40L 항체 O4L (oxelumab VH/VL) (antibody, human IgG4 S228P, kappa, V domains shown) VH: EVQLLESGGGLVQPGGSLRLSCAASGFTFNSYAMSWVRQAPGKGLEWVSIISGSGGFTYYADSVKGRFTISRDNSRTTLYLQMNSLRAEDTAVYYCAKDRLVAPGTFDYWGQGALVTVSS VL: DIQMTQSPSSLSASVGDRVTITCRASQGISSWLAWYQQKPEKAPKSLIYAASSLQSGVPSRFSGSGSGTDFTLTISSLQPEDFATYYCQQYNSYPYTFGQGTKLEIKR :: 1.95
항 OX40L 항체 10H07 (antibody, human IgG4 S228P, kappa, V domains shown) VH: QVYLQQSGAELVKPGASVKLSCKASGYTFTDYWMHWVKQRPGQGLEWIGEIDPGNGRTNYNEKFKNKATLSVDKSSNTAYMQFSSLTSEDSAVFYCASEGAGRGFPYWGQGTLVTVSA VL: DVVLTQTPLSLPVSLGDQASISCRSSQSLVHSNGNTYLHWYLQKPGQSPKLLIYKVSNRFSGVPDRFSGSGSGTDFTLKISRVEAEDLGVYFCSQSTHVPWTFGGGTKLEIKR :: 0.41
항 OX40L 항체 21G07 (antibody, human IgG4 S228P, kappa, V domains shown) VH: QVQLQQSGAELVKPGASVKLSCKASGYTFTNYWMQWVKQRPGQGLEWIGEIDPSDGRTNYNEKFKNKATLTVDRSSSTAYIKLSSLTSEDSAVYYCAREVSLRSMDYWGQGTSVTVSS VL: DIVLTQSPLSLPVSLGDQASISCRSSQSLVHSNGNTYLHWYLQKPGQSPKLLIYKVSNRFSGVPDRFSGSGSGTDFTLKISRVEAEDLGVYFCSQSTHVPFTFGSGTKLEIKR :: 0.85

// switching to the query binder
Input: Return reported IC50 (nM), OX40L blockade assay; argument: 항 OX40L 항체 Hu3F07 (antibody, human IgG4 S228P, kappa, V domains shown) VH: QVQLVQSGAEVKKPGASVKVSCKASGFTFPDYWMHWVRQAPGQGLEWMGEIDPPNGRTNYNEKFKSRVTMTRDTSISTAYMELSRLRSDDTAVYYCARGIYYVDYWGQGTTVTVSS VL: DIVMTQSPLSLPVTLGEPASISCRSSQSLVHSNGNTYLHWYLQKPGQSPQLLIYKVSNRFSGVPDRFSGSGSGTDFTLKISRVEAEDVGVYYCSQSTHVPPTFGGGTKLEIKR
Output: 0.2
